Reference source: PubChem BioAssay (NCI)

Test system: SF-539 CNS
measurementDescription: NCI-60 one-dose screen, 48 h (100 = growth as untreated, 0 = no growth, -100 = all killed)
conditionDetails: 10 µM unless noted
The panel holds about 83,000 compounds, 20% with a hit somewhere; the sample as a whole holds those more often.
Give Condition met when the value for growth is at least 90%. Give Condition not met when it is less.

- compound: "O=[N+]([O-])c1cc([N+](=O)[O-])c(NN=C(c2ccc(O)cc2)c2ccc(O)cc2)cc1Cl"
  groupLabel: "Condition not met"
- compound: "O=C(N/N=C/c1ccc([N+](=O)[O-])cc1)c1ccc(Br)o1"
  groupLabel: "Condition met"

[ask] State whether the measured growth reaches 90%, counting equality as reaching it, for Brc1ccc(-c2nnc3c4[nH]ccc4ncn23)cc1
[reply] Condition met

[ask] Check this compound for growth at or above 90%: CC1Cc2c(Cl)ncnc2N(C)c2ccc(O)cc21 (stereo not given)
[reply] Condition not met

====

Test system: HT29 colon
measurementDescription: NCI-60 one-dose screen, 48 h (100 = growth as untreated, 0 = no growth, -100 = all killed)
conditionDetails: 10 µM unless noted
The panel holds about 83,000 compounds, 20% with a hit somewhere; the sample as a whole holds those more often. Active and inactive are the calls of the source. The calls were made as follows: active = growth percent below 10; inactive = the rest.
metric: growth

For orientation, consider the following solved cases.
- compound: "CCCCCN(CCCCC)CCCCCCCCN1CCCc2ccccc21"
  testedSystem: "HT29 colon"
  growth: "25.6% (inactive)"
- compound: "CC(C)=CC/C=C(/C)[C@H]1CC[C@]2(C)[C@@H]1CC[C@@H]1[C@@]3(C)CC/C(=N/O)C(C)(C)[C@@H]3CC[C@]12C"
  testedSystem: "HT29 colon"
  growth: "23.2% [100 µM] (inactive)"
- compound: "CN(Cc1cccc(C(F)(F)F)c1)C(=O)[C@@H](CC(=O)N1CCC(N2CCCCC2)CC1)N1C(=O)[C@@H](N2C(=O)OC[C@@H]2c2ccccc2)[C@H]1/C=C/c1ccccc1"
  testedSystem: "HT29 colon"
  growth: "86.6% (inactive)"
- compound: "CCCCC(CC)COC(=O)C[N+](C)(C)CCOC(c1ccccc1)c1ccccc1 (stereo not given)"
  testedSystem: "HT29 colon"
  growth: "28.3% (inactive)"

[ask] Fill in: growth of Oc1cc(Nc2ccnc3cc(Cl)ccc23)c2ncccc2c1 is ___
[reply] 109% (inactive)

====

Test system: NCI-H522 lung
measurementDescription: NCI-60 one-dose screen, 48 h
conditionDetails: 10 µM unless noted
The panel holds about 83,000 compounds, 20% with a hit somewhere; the sample as a whole holds those more often. The source made the active and inactive calls. How the source made its calls: active means growth percent below 10; inactive means the rest.
Could you please pick one outcome from this set? label 1 (active), label 0 (inactive)

- compound: "COc1ccc(C(=O)CSc2nnc(-c3cc(-c4ccccc4)nc4ccccc34)o2)cc1"
  groupLabel: "label 0"
- compound: "CCCCCN(CCCCC)CCCCCCCCN1CCCc2ccccc21"
  groupLabel: "label 0"
- compound: "CCOC(=O)CC(c1ccccc1)C(C#N)c1ccccc1 (centres undefined)"
  groupLabel: "label 0"
- compound: "CC1(C)CC[C@]23CC[C@]4(C)[C@H](CC[C@@H]5[C@@]6(C)C/C(=C/c7cccnc7)C(=O)C(C)(C)[C@@H]6CC[C@]54C)[C@H]2[C@H]1OC3=O"
  groupLabel: "label 0"
- compound: "CC1(C)CC[C@]2(C(=O)OC(=O)[C@]34CCC(C)(C)C[C@@H]3C3=CC[C@@H]5[C@@]6(C)CCC(=O)C(C)(C)[C@@H]6CC[C@@]5(C)[C@]3(C)CC4)CC[C@]3(C)C(=CC[C@@H]4[C@@]5(C)CCC(=O)C(C)(C)[C@@H]5CC[C@]43C)[C@H]2C1"
  groupLabel: "label 0"

[ask] Hi, sorry to bother you, what did the test record for CC(C)CCSC1=CC(=O)c2ccccc2C1=O ?
[reply] label 1

[ask] Recorded test call requested for COc1ccc(OC)c([N+](=O)[O-])c1C(=O)CNC(C)=O
[reply] label 0

[ask] What did the test return for C[N+](C)(C)c1ncnc2[n-]cnc12 ?
[reply] label 0

[ask] # lookup: test call for O=C1Nc2ccccc2/C1=C/C(=O)c1ccc(N2CCOCC2)cc1
[reply] label 0

[ask] Recorded test outcome, item O=S(=O)(NCCCNc1nccc(-c2c(-c3cccc(F)c3)nc3occn23)n1)c1cccc2ccccc12
[reply] label 0

[ask] Please let me know the test result on file for O=C(NCCCCCCCNC(=O)OCc1ccc2c(Cl)cc(Cl)c(O)c2n1)OCc1ccc2c(Cl)cc(Cl)c(O)c2n1 .
[reply] label 1

[ask] # outcome recorded in this test, key = O=C(Nc1ccccc1)Nc1ccc(C(=O)/C=C/c2ccc(N3CCCC3)cc2)cc1
[reply] label 0

[ask] Kindly provide the recorded test outcome for the following compound: CC1Cc2c(Cl)ncnc2N(C)c2ccc(O)cc21 (centres undefined)
[reply] label 0

[ask] What classification did COc1ccc(C(=O)c2nccc3cc(OC)c(OC)cc23)cc1OC end up with in this test?
[reply] label 0

[ask] Name the outcome recorded for CCCCCCSc1ncnc2nc[nH]c12 in the assay.
[reply] label 0

[ask] Could you kindly confirm the outcome this assay logged for COc1cc2c(c(Br)c1N)-c1cc(Br)c(N)cc1C2=O ?
[reply] label 0

[ask] How was COc1cc(-c2nc(SCCC(C)C)nc(Nc3ccc(S(N)(=O)=O)cc3)c2C#N)cc(OC)c1OC classified in this test?
[reply] label 0

[ask] Field: outcome | Entry: Cn1cc(-c2noc(-c3cn(C)c4ncc(F)cc34)n2)c2cc(Cl)ccc21
[reply] label 0

[ask] // param item: O=[N+]([O-])c1cc([N+](=O)[O-])c(C(F)(F)F)cc1NN=C(c1ccc(O)cc1)c1ccc(O)cc1 ; yields the recorded call
[reply] label 1
